Can you tell me melting point for the items I'm about to list?

Guide cases for melting point, answers given:
>  <molecule>
CN(C)C=NS(=O)(=O)c1c(C(F)(F)F)nc2ccc(Cl)nn12

>  <melting point>
204 to 205 °C

$$$$
>  <molecule>
CCOc1ccc(OCC(N)=O)c(C(Nc2ccc(C(=N)N)cc2)C(=O)O)c1 (racemic)

>  <melting point>
266 °C

$$$$
>  <molecule>
Cn1c(COc2ccc(CC3SC(=O)NC3=O)cc2)nc2ccc(Oc3ccc(NC(=S)NCc4ccccc4)cc3)cc21 (stereo unspecified)

>  <melting point>
175 to 177 °C

$$$$
>  <molecule>
Cc1ccc(N)c(C(=O)CS(C)=O)c1 (stereo unspecified)

>  <melting point>
145 to 147 °C

$$$$

Your task in this section: give melting point for each listed record.
1. N#CN=C(Cc1ccccc1F)NC1CCc2ccccc21 (stereo unspecified)
2. CC(=O)OC1CC2(C)C(CCC2(O)C(C)=O)C2CCC3=CC(=O)CCC3(C)C12 (stereo unspecified)
3. CC(C)(C)OC(=O)N[C@@H](Cc1ccccn1)C(=O)NCC(=O)c1ccc(-c2ccccc2)cc1

[out]
1. 141 to 142 °C
2. 160 °C
3. 129 to 132 °C

Your task in this section: give melting point for each listed record.
1. CCCCCCCCCCCCCCCCCCN1C(=O)c2ccccc2C1=O
2. Clc1ccc2nncc(Cl)c2c1
3. COc1cc(-c2ccccc2)c(OCC(=O)O)c(-c2ccccc2)c1
4. O=C(O)C1=NN(c2ccc(Cl)cc2)C(c2ccccc2)C1 (stereo unspecified)

[out]
1: 78 to 79 °C; 2: 111 to 113 °C; 3: 143 to 145 °C; 4: 177 to 179 °C

Your task in this section: give melting point for each listed record.
1. CCCN1CCc2c(cccc2NC(C)=O)C1
2. COC(=O)CCC(=O)c1ccc(S)cc1
3. CS(=O)(=O)C(S(C)(=O)=O)S(=O)(=O)Oc1ccccc1
4. O=C(O)CCCn1ccc(=O)c(O)c1Cc1ccccc1
5. COc1ccc(N2CCN(Cc3n[nH]c4ccccc34)CC2)nc1
6. CCOc1ccccc1C=[N+]([O-])C1CCCCC1
7. CN1CCN(C(=O)/C=C/c2occc(=O)c2OCC(=O)OC(C)(C)C)CC1
8. COC(=O)c1ccc(-c2nc(-c3cc(C)oc3C)cs2)cc1

[out]
["123 °C", "83 to 84 °C", "159 to 160 °C", "170 to 172 °C", "132 to 134 °C", "124 °C", "124 to 125 °C", "103 to 105 °C"]

Your task in this section: give melting point for each listed record.
1. O=C1Nc2ccc(Cl)cc2C2(c3ccccc3)OCCCN12 (stereo unspecified)
2. COc1cccc(OC)c1-c1ccc(C[C@H](NC(=O)c2c(Cl)cc(F)cc2Cl)C(=O)O)cc1

[out]
1. 202 to 204 °C
2. 206 to 207 °C

---

Can you tell me melting point for the items I'm about to list?

Guide cases for melting point, answers given:
>  <molecule>
CCOC(=O)Nc1cc([N+](=O)[O-])cc(CC)c1C(=O)OCC

>  <melting point>
47 to 48 °C

$$$$
>  <molecule>
O=C1CC(C(=O)O)Oc2ccccc21 (stereo unspecified)

>  <melting point>
170 to 171 °C

$$$$
>  <molecule>
CCCCCN(CCC12CC3CC(CC(C3)C1)C2)C(=O)NC/C=C/c1ccncc1

>  <melting point>
90 to 118 °C

$$$$
>  <molecule>
Cc1nc(-c2ccc(OCc3ccncc3)cc2)no1

>  <melting point>
132 to 133 °C

$$$$
>  <molecule>
Fc1ccccc1-c1nc(Cl)nc2ccccc12

>  <melting point>
141 °C

$$$$
>  <molecule>
CCOC(=O)C1=C(C)Nc2c(C(=O)O)ncn2C1c1cccc([N+](=O)[O-])c1 (stereo unspecified)

>  <melting point>
222 °C

$$$$
>  <molecule>
NC(=O)c1[nH]nnc1O

>  <melting point>
191 to 192 °C

$$$$
>  <molecule>
CCCCCc1ccc(CC(=O)c2ccc(OC)cc2)cc1

>  <melting point>
62 °C

$$$$
>  <molecule>
O=C(Nc1ccc2[nH]cnc2c1)C(=O)N1CCC(Cc2ccccc2)CC1

>  <melting point>
85 to 87 °C

$$$$
>  <molecule>
CC(C(=O)O)C1CC(=O)N(c2ccc(Cl)cc2)C1 (stereo unspecified)

>  <melting point>
63 to 67 °C

$$$$

[in] Need melting point of Cc1ccccc1-c1ccc2c(c1)CCCc1c-2nc2ccc(F)cc2c1C(=O)O , thanks.
[out] > 300 °C

---

measured.metric: melting point

>  <compound>
CCOC(=O)C1Cc2ccc(Cl)cc2NC1=O (centres undefined)

>  <melting point>
182 to 184 °C

$$$$
>  <compound>
O=C(O)C1=Cc2cc(-c3ccccc3)ccc2OC1C(F)(F)F (centres undefined)

>  <melting point>
197 to 198 °C

$$$$
>  <compound>
COc1cc2cc(C(=O)N3CC(CCl)c4c3cc(NC(=O)OCc3ccc([N+](=O)[O-])cc3)c3ccccc43)[nH]c2c(OC)c1OC (centres undefined)

>  <melting point>
191 to 192 °C

$$$$
>  <compound>
CC(=O)OCCC(=C(c1ccccc1)c1ccccc1)c1ccccc1

>  <melting point>
81 to 83 °C

$$$$
>  <compound>
CCOC(=O)c1cn(C)c2nc3c(F)c(F)c(F)cc3cc2c1=O

>  <melting point>
320 °C

$$$$
>  <compound>
COc1cc(C(F)(F)F)cc(OC)c1-c1csc(NC(=O)c2cc3ccccc3[nH]2)n1

>  <melting point>
> 260 °C

$$$$

Your task in this section: give melting point for each listed record.
1. O=C(c1ccncc1)N1CCN=C1Nc1c(Cl)cccc1Cl
2. CCCCCCCCCCOc1cc(OCCCCCCCCCC)cc(N(CC(=O)OC)CC(=O)OC)c1
3. CCOC(=O)CNC(=O)c1c(Cl)c2cc(Oc3ccc(C(F)(F)F)cc3)ccc2n1-c1ccc(OC(C)C)cc1

[out]
82.5 to 83.5 °C
36 to 38 °C
80 to 81 °C

---

measured.metric: melting point

>  <compound>
Cc1ccc(-c2cc(F)c(F)cc2-c2ccc(S(C)(=O)=O)cc2)cc1Cl

>  <melting point>
138 to 139 °C

$$$$
>  <compound>
O=C(Cc1ccc(OCc2ccccc2C(=O)O)cc1)NC1(C(=O)O)Cc2ccc(-c3ccc(Cl)cc3)cc2C1 (stereo unspecified)

>  <melting point>
209 to 211 °C

$$$$
>  <compound>
CCC1c2cccn2-c2ccc(Br)cc2N1S(=O)(=O)c1ccc(O)c(C)c1 (stereo unspecified)

>  <melting point>
191 to 193 °C

$$$$
>  <compound>
CCCc1cc(CC(=O)OC)ccc1OC1COc2ccc(C(C)=O)c(O)c2C1 (stereo unspecified)

>  <melting point>
59 to 60 °C

$$$$
>  <compound>
CC(C)(C)c1ccc(Cl)c(C(=O)O)c1

>  <melting point>
99 to 103 °C

$$$$

Your task in this section: give melting point for each listed record.
1. CC(C#N)c1nc(O)n[nH]1 (stereo unspecified)
2. Nn1c(C(F)(F)F)cc(-c2ccc(C(F)(F)F)cc2)cc1=O
3. CSc1ccc(C2=C(Br)CCC2)cc1
4. Cc1cc(I)cc(CO)c1N
5. O=C(Cc1ccncc1)[N+]1([O-])CCC(C2c3ccc(Cl)cc3CCc3cccnc32)CC1 (stereo unspecified)
6. N#Cc1cccc2c1CC(=NN)c1ccccc1S2

[out]
["182 to 184 °C", "125 °C", "52 to 54 °C", "101 to 103 °C", "125 to 126 °C", "175 to 177 °C"]

Your task in this section: give melting point for each listed record.
1. C=CC(c1ccccc1)c1c(C)c(NC=O)c(C)c(C)c1O (stereo unspecified)
2. CON(C)C(=O)Nc1ccc(CC#N)cc1Cl
3. CCCc1cc(F)c2oc(Cc3ccc(OC)cc3)c(C)c2c1OC(C)=O
4. C[C@]12CC[C@H](O)CC1=CCC1C2CC[C@@]2(C)C1CC[C@@H]2C1=CC(=O)OC1 (stereo partly specified)
5. Cc1ccc(C2NC(C(=O)O)C(C)(C)S2)cc1 (stereo unspecified)
6. O=S(=O)(Nc1ncnc(OCCO)c1-c1cccc(Cl)c1)c1ccc(Cl)cc1

[out]
["144 to 145 °C", "104 °C", "85 to 88 °C", "286 to 287 °C", "89 to 90 °C", "178 to 180 °C"]

---

measured.metric: melting point

Guide cases for melting point, answers given:
>  <compound>
COc1ccc(-c2cnc(C3(c4ccc(OC)c(OC)c4)NCCc4c3[nH]c3ccccc43)nc2)cc1OC (centres undefined)

>  <melting point>
184 to 186 °C

$$$$
>  <compound>
CC(C)c1nc(C(C)C)c(CNC2CC2)c(-c2ccc(F)cc2)c1CO

>  <melting point>
81 to 83 °C

$$$$
>  <compound>
COC(=O)C=CC(=CN(C)C)C(=O)OC

>  <melting point>
62 °C

$$$$
>  <compound>
O=c1[nH]cc2c(c1-c1ccc(O)cc1)Nc1ccccc1S2

>  <melting point>
> 300 °C

$$$$

Your task in this section: give melting point for each listed record.
1. CC(=O)Oc1c(C2CCN(CCCCNC(=O)c3ccc(-c4ccc(C#N)cc4)cc3)CC2)ccc2ccccc12
2. O=[N+]([O-])c1ccc(NN=C2c3ncc(Cl)cc3C=CC2Cl)c([N+](=O)[O-])c1 (centres undefined)
3. COc1cc(CN2CCN(C(=O)c3cc4ccccc4oc3=O)CC2)cc(OC)c1OC
4. O=C(O)CCCOc1ccc(C(=O)c2ccc(F)cc2)cc1

[out]
1. 115 to 120 °C
2. > 280 °C
3. 171 to 173 °C
4. 109 to 111 °C

[in] Need melting point of CC(=O)OC1CN=C(c2ccccc2Cl)c2ccccc2N(C)C1 (centres undefined) , thanks.
[out] 129 to 131 °C
